- Assay system: T1, biotinylated recombinant human IL-17A (rhIL-17, R&D Systems #317-ILB) (human, UniProt Q16552 24-155, biotinylated)
- T1 construct: IL-17A, human, recombinant; also called Biotinylated IL-17A; source: bought: R&D Systems
- T1 sequence (Q16552 24-155): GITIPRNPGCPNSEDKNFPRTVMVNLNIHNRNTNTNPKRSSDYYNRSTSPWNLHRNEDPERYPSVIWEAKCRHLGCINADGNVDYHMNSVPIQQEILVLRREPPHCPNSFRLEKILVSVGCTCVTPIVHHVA
- Test conditions: both partners purified
Where no end group is shown, it is not given here.
Recorded measurements of pIC50, one per entry
Units for pIC50: none; it is -log10 of a concentration expressed in mol/L.

| Binder | pIC50 |
| --- | --- |
| Ac-ITVTMPADLWDWIRA (not fully specified (C-terminus), analogue of peptide 2, T at position 2; made on Rink resin; a C-terminal amide is surmised; also called V2T; source: synthetic peptide) [peptide 21] | 7.51 |
| Ac-IVVTMPAALWDWIRA (not fully specified (C-terminus), analogue of peptide 2, A at position 8; made on Rink resin; a C-terminal amide is surmised; source: synthetic peptide) [peptide 10] | 5.40 |

Entry Ac-IVVTAPADLWDWIRA (not fully specified (C-terminus), analogue of peptide 2, A at position 5; made on Rink resin; a C-terminal amide is surmised; source: synthetic peptide) [peptide 13] , pIC50 reported as 7.96

Measured pIC50 of Ac-IWVTMPADLWDWIRA (not fully specified (C-terminus), analogue of peptide 2, W at position 2; made on Rink resin; a C-terminal amide is surmised; source: synthetic peptide) [peptide 22] : 6.28
